Catalogue of Growth Rate readings, one per entry.
tested on: HEK-293T; experiment: Incucyte cell viability with HEK293T; type: toxicity, cell-based; conditions: human, 6 h, 10 µM, compound concentration 10 uM, replicate number 2, timepoint 6 hours; also: filed as whole numbers so only -1 and 0 and 1 occur
Give the value as a plain number.

Here are 2 molecules together with their reported answers.
>  <MOLECULE>
CCOC(=O)c1cc(C#N)c(N2CCC(C(=O)NS(=O)(=O)Cc3ccccc3)CC2)nc1C

>  <RECORDED_NUMBER>
1

$$$$
>  <MOLECULE>
C[C@@H]1CN(c2cc(-c3nn(C)c4ccc(OC5(C)CC5)cc34)ncn2)C[C@H](C)O1

>  <RECORDED_NUMBER>
0

$$$$

Can you look up the measured Growth Rate of `CNc1nc(-c2ccc3c(N)n[nH]c3c2)cc(N2C[C@@H](C(=O)NC3CCCCC3)CC[C@H]2C)n1` for me?
0

// repeat for CN(C)CC[C@@H](c1ccc(Cl)cc1)c1ccccn1.O=C(O)/C=C\C(=O)O [DEXCHLORPHENIRAMINE MALEATE] and report
0

// repeat for `O=C(Nc1cccc2c(=O)cc(-c3nnn[nH]3)oc12)c1ccc(OCCCCc2ccccc2)cc1` and report
1

// repeat for CC(C)Oc1ccc(C(=O)N[C@H](CNC(=O)CN(C)C)Cc2ccc(-c3cn4cccc([C@H](C)O)c4n3)cc2)cc1Cl [GSK-923295A] and report
0

// repeat for `CN1C(=O)[C@@H](N2CCc3c(nn(Cc4ccccc4)c3Br)C2=O)COc2ccccc21` and report
0
